test: Biodistribution in rats
Format: in vivo, male rats
experimental-parameters: second of two values, 60 or 240 min not assignable, i.v.
List of Liver values.
Give your result in percent injected dose as a bare value.

# example entries with known answers
1. CCC(=NO)C(C)(C)NCCCCNC(C)(C)C(C)=NO : 11.2
2. CC(C)(C=NO)NCCCCNC(C)(C)C(Cn1ccnc1[N+](=O)[O-])=NO : 11.0
3. CC(=NO)C(C)(C)NCCCCNC(C)(C)C(Cn1ccnc1[N+](=O)[O-])=NO : 11.4
4. CC(=NO)C(C)(C)NCCCCCNC(C)(C)C(Cn1ccnc1[N+](=O)[O-])=NO : 2.5
5. COCC(=NO)C(C)(COC)NCCCCNC(C)(COC)C(COC)=NO (stereo not drawn) : 6.3

Lookup: Recorded Liver of CCC(=NO)C(C)(C)NCCCCNC(C)(C)C=NO , please.
Found: 11.6

Lookup: Entry CC(=NO)C(C)(C)NCCCNC(C)(C)C(C)=NO [Compound X, reference compound] please
Found: 13.1

Lookup: Quick one: COC(=O)C(CCCNC(C)(C)C(C)=NO)NC(C)(C)C(C)=NO (stereo not drawn)
Found: 2.5

Lookup: Could you do the same for CC(=NO)C(C)(C)NCCCNC(C)(C)C(Cn1ccnc1[N+](=O)[O-])=NO [Compound V, reference compound] , please?
Found: 21.5

Lookup: Would you mind doing CCC(=NO)C(C)(C)NCCCCNC(C)(C)C(CC)=NO as well?
Found: 13.1
